- assay_details: PK Phase (Group 2): plasma concentrations and pharmacokinetics of Compound 18 and its metabolite Compound 4 after once daily ocular instillation of Compound 18 nanosuspension for 7 days
- Type: in vivo, New Zealand white rabbits
- condition_parameters: male, New Zealand white, rabbit, plasma, topical or ocular, 0.8 mg/kg, plasma, Day 7, Compound 18 0.8 mg/kg ocular instillation; animal 207666
readout_type: half-life (h)
One number for each entry, in h.

stdin: Returns the measured half-life for the input compound. Input: `CCCc1nn(C)c2c(=O)[nH]c(-c3cc(S(=O)(=O)N4CC(CCCO)C4)ccc3OCC)nc12`
stdout: 1.82

====

- assay_details: PK Phase (Group 2): plasma concentrations and pharmacokinetics of Compound 18 and its metabolite Compound 4 after once daily ocular instillation of Compound 18 nanosuspension for 7 days
- Assay type: in vivo, New Zealand white rabbits
- condition_parameters: male, New Zealand white, rabbit, plasma, other: ocular instillation, 0.8 mg/kg/day, 1 h; animal 207667; read-out: Day 1 Compound 18 Plasma Concentration
readout_type: concentration at 1 h (ng/mL)
One number for each entry, in ng/mL.

stdin: Returns the measured concentration at 1 h for the input compound. Input: `CCCc1nn(C)c2c(=O)[nH]c(-c3cc(S(=O)(=O)N4CC(CCCO[N+](=O)[O-])C4)ccc3OCC)nc12`
stdout: 0.0575

====

- assay_details: TD Phase (Groups 1 and 3): plasma and ocular tissue concentrations and pharmacokinetics of Compound 18 and its metabolite Compound 4 after once daily ocular instillation of Compound 18 nanosuspension for 7 days
- Assay type: in vivo, New Zealand white rabbits
- condition_parameters: male, New Zealand white, rabbit, lens, topical, 2 mg/day, TD Phase, Group 3, 8 h, individual animals, BQL set to 0; read-out: Final Compound 18 Lens Conc.
readout_type: concentration at 8 h

stdin: Returns the measured concentration at 8 h for the input compound. Input: `CCCc1nn(C)c2c(=O)[nH]c(-c3cc(S(=O)(=O)N4CC(CCCO[N+](=O)[O-])C4)ccc3OCC)nc12`
stdout: 0 ng/g

====

Consider the following compounds; for each one, report its Cmax.
- assay_details: PK Phase (Group 2): plasma concentrations and pharmacokinetics of Compound 18 and its metabolite Compound 4 after once daily ocular instillation of Compound 18 nanosuspension for 7 days
- Format: in vivo, New Zealand white rabbits
- condition_parameters: male, New Zealand white, rabbit, plasma, topical or ocular, 0.8 mg/kg, plasma, Day 7, Compound 18 0.8 mg/kg ocular instillation; animal 207665
Give bare numbers, in ng/mL.

compound=CCCc1nn(C)c2c(=O)[nH]c(-c3cc(S(=O)(=O)N4CC(CCCO)C4)ccc3OCC)nc12 unit=ng/mL measured=0.938

For the next question, use this compound.
stdin: Returns the measured Cmax for the input compound. Input: `CCCc1nn(C)c2c(=O)[nH]c(-c3cc(S(=O)(=O)N4CC(CCCO[N+](=O)[O-])C4)ccc3OCC)nc12`
stdout: 0.0505

====

- assay_details: TD Phase (Groups 1 and 3): plasma and ocular tissue concentrations and pharmacokinetics of Compound 18 and its metabolite Compound 4 after once daily ocular instillation of Compound 18 nanosuspension for 7 days
- Assay type: in vivo, New Zealand white rabbits
- condition_parameters: male, New Zealand white, rabbit, vitreous humor, other: ocular instillation (eye drop), 0.8 mg/kg/day, TD Phase, Group 3, 0.5 h, individual animals; read-out: Compound 18 Vitreous Humor Conc.
readout_type: concentration at 0.5 h (ng/mL)
Answers are plain numbers, in ng/mL.

stdin: Returns the measured concentration at 0.5 h for the input molecule. Input: `CCCc1nn(C)c2c(=O)[nH]c(-c3cc(S(=O)(=O)N4CC(CCCO[N+](=O)[O-])C4)ccc3OCC)nc12`
stdout: 0.0771
